Hey, just so you know, these numbers are from paper PMC8427247.

target: P5PA Y103A (Actinobacillus pleuropneumoniae, UniProt B0BUC2, Y129A); assay: Microscale thermophoresis (MST) with fluorescently labeled P5PA mutant

# compound, unitInfo, Kd
rows = [
    ("Cc1ncc(COP(=O)(O)O)c(C=O)c1O [P5P, pyridoxal-5′-phosphate]", "µM", 17),
]

---

Molecular target: P5PA WT (Actinobacillus pleuropneumoniae, UniProt B0BUC2)
Assay: Isothermal titration calorimetry (ITC), ligand titrated into P5PA
Assay type: binding
Method: The purification method described in the P5PA protein purification section was modified as follows in order to purify apo-P5PA for ITC. Before elution, P5PAwas denatured in the gravity column. To denature P5PA, 6 M guanidine hydrochloride (GdHCl) was applied to the column, after which a refolding step was performed by stepwise addition of 4.5 M GdHCl, 3 M GdHCl, and finally 1.5 M GdHCl. The protein was then washed with lysis buffer and eluted with elution buffer ([15]). […]
pKd: −log10 of the molar value.

# compound, pKd
measured = [
    ("Cc1ncc(COP(=O)(O)O)c(C=O)c1O [P5P, pyridoxal-5′-phosphate]", 7.44),
]

---

Biological target: P5PA H203A (Actinobacillus pleuropneumoniae, UniProt B0BUC2, H229A)
Sequence (B0BUC2 26-343 H229A): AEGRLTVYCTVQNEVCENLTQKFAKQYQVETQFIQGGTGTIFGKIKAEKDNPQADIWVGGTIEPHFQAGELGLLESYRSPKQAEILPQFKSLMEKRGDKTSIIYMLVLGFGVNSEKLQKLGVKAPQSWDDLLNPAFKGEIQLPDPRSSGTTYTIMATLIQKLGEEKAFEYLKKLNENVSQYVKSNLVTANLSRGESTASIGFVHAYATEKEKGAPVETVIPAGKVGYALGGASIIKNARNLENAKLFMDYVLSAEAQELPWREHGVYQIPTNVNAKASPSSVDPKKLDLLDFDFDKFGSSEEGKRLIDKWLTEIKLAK
Test: Microscale thermophoresis (MST) with fluorescently labeled P5PA mutant

# compound, experimentalTarget, unitInfo, Kd
data = [
    ("Cc1ncc(COP(=O)(O)O)c(C=O)c1O [P5P, pyridoxal-5′-phosphate]", "P5PA H203A (Actinobacillus pleuropneumoniae, UniProt B0BUC2, H229A)", "µM", 10),
]

---

Molecular target: P5PA T149A (Actinobacillus pleuropneumoniae, UniProt B0BUC2, T175A)
Sequence (B0BUC2 26-343 T175A): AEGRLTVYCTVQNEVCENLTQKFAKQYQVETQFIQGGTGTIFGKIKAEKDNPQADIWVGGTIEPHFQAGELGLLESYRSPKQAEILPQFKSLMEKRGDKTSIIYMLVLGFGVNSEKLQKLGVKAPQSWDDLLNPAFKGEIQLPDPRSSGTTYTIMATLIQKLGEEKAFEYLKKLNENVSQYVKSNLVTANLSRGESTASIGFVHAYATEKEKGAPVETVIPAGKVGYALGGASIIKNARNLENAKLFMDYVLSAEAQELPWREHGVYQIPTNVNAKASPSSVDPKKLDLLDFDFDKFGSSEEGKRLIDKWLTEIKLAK
Experiment: Microscale thermophoresis (MST) with fluorescently labeled P5PA mutant
Procedure: P5PA was fluorescently labeled using RED-NHS Second Generation Protein Labeling Kit (NanoTemper). Briefly, 90 μl of purified apo-P5PA at 10 μM was mixed with 10 μl of the provided labeling dye at 300 μM. The mixture was incubated in dark for 30 min and loaded to a special gravity column that is pre-equilibrated in PBS with 0.05% Tween-20 (PBST). […] The yield of the labeled P5PA was determined by 280-nm readings made on a Nanodrop. […]
measuredMetric: Kd (nM)

# molecule, observedResult
records = [
    ("Cc1ncc(COP(=O)(O)O)c(C=O)c1O [P5P, pyridoxal-5′-phosphate]", 1300),
]

---

molecular target: P5PA WT (Actinobacillus pleuropneumoniae); assay: Microscale thermophoresis (MST) with fluorescently labeled P5PA; type: binding
pKd: −log10 of the molar value.
measuredMetric: pKd

# compound, observedResult
records = [
    ("Cc1ncc(COP(=O)(O)O)c(C=O)c1O [P5P, pyridoxal-5′-phosphate]", 7.55),
]
